# Assay: LD20 (Mouse)
# Type: in vivo
# Measurement Setup: i.p. days 1, 5 and 9, CD2-F1 mice, observed up to 14 days
Parameter: LD50 (mg/kg)
Record the value in mg/kg, omitting the unit from your answer.

// query Tell me LD50 reported for COC(=O)Nc1cn2nc(OCc3cccc4ccccc34)ccc2n1
// result 450

// query Tell us which LD50 value is on record for CCOC(=O)Nc1cn2nc(OCc3cc(OC)c(OC)c(OC)c3)ccc2n1
// result 15

// query Give recorded LD50. CCOC(=O)Nc1cn2nc(OCc3cc(OC)ccc3OC)ccc2n1
// result 5

// query State, in one line, measured LD50 of CCCCOC(=O)Nc1cn2nc(OCc3cc(OC)c(OC)c(OC)c3)ccc2n1
// result 140

// query Read off the recorded LD50 for COC(=O)N(C)c1cn2nc(OCc3cc(OC)c(OC)c(OC)c3)ccc2n1
// result 450

// query Determine its reported LD50: CCCOC(=O)Nc1cn2nc(OCc3cc(OC)c(OC)c(OC)c3)ccc2n1
// result 20

// query Tell me LD50 reported for COCCOC(=O)Nc1cn2nc(OCc3cc(OC)c(OC)c(OC)c3)ccc2n1
// result 15

// query Query LD50 for COC(=O)Nc1cn2nc(OCc3cc(OC)c(OC)c(OC)c3Br)ccc2n1
// result 165

// query State its LD50 for this molecule: COC(=O)Nc1cn2nc(OCc3cc(OC)ccc3OC)ccc2n1
// result 200

====

# System: HCT-116 human colon carcinoma cells
# Assay: In vitro activity against human tumour cell line HCT-116 (proliferation)
# Assay type: cell-based
# Measurement Setup: HCT-116, 96 h
# Description: Cells from the human tumour cell lines DLD-1, HCT-116, WiDr and A549 are exposed to serially diluted concentrations of test compounds over a 96 hour period in culture. The ability of such cells to proliferate over the test period is determined. […] b) 20 μl of MTT (5 mg/ml in PBS) is added to each well. […] Absorbances are read by an ELISA plate spectrophotometer at a wavelength of 540 nm. […]
Parameter: pIC50
On this scale, pIC50 is minus log10 of a concentration expressed in M (mol/L).

// query Give HCT-116 human colon carcinoma cells pIC50 for the following compound: CCOC(=O)Nc1cn2nc(OCc3cc(OC)ccc3OC)ccc2n1
// result 8.55

====

# Test system: WiDr human colon adenocarcinoma cells
# Assay: In vitro activity against human tumour cell line WiDr (proliferation)
# Type: cell-based
# Measurement Setup: 96 h
Parameter: IC50 (nM)
State just the number; it will be interpreted in nM.

// query Quick one: give measured IC50 for CCOC(=O)Nc1cn2nc(OCc3cc(OC)ccc3OC)ccc2n1
// result 4.57

====

# Assay: LD20 (Mouse)
# Assay type: in vivo
# Measurement Setup: i.p. days 1, 5 and 9, CD2-F1 mice, observed up to 14 days
Parameter: LD50

// query Find the measured LD50 of COC(=O)Nc1cn2nc(OCc3cc(OC)c(OC)c(OC)c3)ccc2n1 and report it.
// result 20 to 30 mg/kg

// query Please look at this compound and report its LD50: COC(=O)Nc1cn2nc(OCc3cccc(C)c3)ccc2n1
// result > 450 mg/kg

// query For the compound COC(=O)Nc1cn2nc(OCc3cc(OC)cc(OC)c3)ccc2n1 , give its measured LD50 value.
// result > 450 mg/kg

// query Given COC(=O)Nc1cn2nc(OCc3cccc(OC)c3OC)ccc2n1 , respond with its LD50.
// result > 450 mg/kg
